target: ATP-dependent translocase ABCB1 (Homo sapiens, UniProt P08183); assay: Inhibition of human Pgp-mediated DNR transport in NIH3T3 cells by microplate assay; type: cell-based, Mus musculus; conditions: read-out: Ki
Sequence (P08183 whole entry): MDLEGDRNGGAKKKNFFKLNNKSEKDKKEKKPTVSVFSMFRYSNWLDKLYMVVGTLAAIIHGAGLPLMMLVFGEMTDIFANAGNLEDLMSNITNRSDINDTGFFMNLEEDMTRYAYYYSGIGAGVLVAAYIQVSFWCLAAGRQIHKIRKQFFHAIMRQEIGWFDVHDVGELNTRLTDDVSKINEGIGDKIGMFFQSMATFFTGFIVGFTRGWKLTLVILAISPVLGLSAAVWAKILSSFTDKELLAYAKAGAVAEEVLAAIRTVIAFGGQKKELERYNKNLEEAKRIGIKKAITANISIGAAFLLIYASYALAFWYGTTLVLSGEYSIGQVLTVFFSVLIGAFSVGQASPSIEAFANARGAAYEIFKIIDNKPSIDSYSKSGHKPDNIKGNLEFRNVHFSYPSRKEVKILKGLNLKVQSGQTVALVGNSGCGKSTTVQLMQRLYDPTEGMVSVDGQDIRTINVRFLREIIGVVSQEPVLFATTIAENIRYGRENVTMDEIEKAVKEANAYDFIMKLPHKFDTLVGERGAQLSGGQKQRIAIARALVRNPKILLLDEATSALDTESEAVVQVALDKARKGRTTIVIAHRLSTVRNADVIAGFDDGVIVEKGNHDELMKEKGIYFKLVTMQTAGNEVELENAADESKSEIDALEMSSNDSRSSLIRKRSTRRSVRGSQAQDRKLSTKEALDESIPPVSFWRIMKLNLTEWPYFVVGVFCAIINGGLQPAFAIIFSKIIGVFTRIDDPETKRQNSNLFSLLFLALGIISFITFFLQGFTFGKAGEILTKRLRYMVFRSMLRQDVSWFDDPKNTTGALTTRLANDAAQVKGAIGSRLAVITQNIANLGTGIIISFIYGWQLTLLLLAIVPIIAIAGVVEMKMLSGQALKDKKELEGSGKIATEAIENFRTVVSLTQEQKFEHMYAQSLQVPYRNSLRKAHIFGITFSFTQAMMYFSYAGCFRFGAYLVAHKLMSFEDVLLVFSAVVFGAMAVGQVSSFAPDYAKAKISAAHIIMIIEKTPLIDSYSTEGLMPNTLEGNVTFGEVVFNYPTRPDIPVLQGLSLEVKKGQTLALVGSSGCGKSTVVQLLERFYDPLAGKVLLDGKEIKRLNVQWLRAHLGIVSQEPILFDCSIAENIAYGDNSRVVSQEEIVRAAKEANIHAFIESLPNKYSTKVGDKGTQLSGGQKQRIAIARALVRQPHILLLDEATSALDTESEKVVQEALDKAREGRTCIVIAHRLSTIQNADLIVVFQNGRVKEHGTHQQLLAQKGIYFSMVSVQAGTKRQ
Binarize Ki at 6 µM; below is Fulfilled, at or above is Not fulfilled.

INSERT INTO results (compound_structure, group_label) VALUES
  ('CC(=O)O[C@H]1[C@@H](OC(=O)c2ccco2)C[C@@](C)(O)[C@]23OC(C)(C)[C@H](C[C@H](OC(=O)c4ccco4)[C@]12C)[C@H]3O', 'Fulfilled'),
  ('CC(=O)O[C@H]1[C@@H](OC(=O)c2ccccc2)C[C@@](C)(O)[C@]23OC(C)(C)[C@H](C[C@H](OC(=O)c4ccco4)[C@]12C)[C@H]3OC(=O)C(C)(C)C', 'Fulfilled'),
  ('CC(=O)O[C@H]1[C@@H](O)C[C@@](C)(O)[C@]23OC(C)(C)[C@H](C[C@H](OC(=O)c4ccco4)[C@]12C)[C@H]3OC(=O)c1ccco1', 'Fulfilled'),
  ('CC(=O)O[C@H]1[C@@H](OC(=O)c2cccnc2)C[C@@](C)(O)[C@]23OC(C)(C)[C@H](C[C@H](OC(=O)c4ccco4)[C@]12C)[C@H]3OC(=O)c1ccco1', 'Not fulfilled'),
  ('CC(=O)O[C@H]1C[C@@](C)(O)[C@]23OC(C)(C)[C@H](C[C@H](OC(=O)c4ccco4)[C@]2(C)[C@H]1OC(=O)c1ccccc1)[C@H]3OC(=O)c1ccco1', 'Fulfilled');

IN: Is Ki of CC(=O)OC[C@]12[C@H](OC(C)=O)C(=O)[C@@H]3[C@@H](OC(C)=O)[C@]1(OC3(C)C)[C@H](C)C[C@H](OC(C)=O)[C@@H]2OC(C)=O strictly below 6 µM?
OUT: Not fulfilled

IN: Subsequent entry: CC(=O)O[C@@H]1[C@H](O)[C@@H](C)[C@@]23C[C@@H](C[C@H](OC(=O)/C=C/c4ccccc4)[C@]2(C)[C@H]1OC(=O)c1ccccc1)C(C)(C)O3
OUT: Not fulfilled

IN: Try CC(=O)O[C@H]1[C@@H]2[C@@H](OC(C)=O)[C@@]3(OC2(C)C)[C@](C)([C@H]1OC(=O)c1ccccc1)[C@@H](OC(=O)c1ccccc1)[C@@H](OC(=O)c1ccccc1)C[C@@]3(C)O next.
OUT: Not fulfilled

IN: Param item: CC(=O)O[C@H]1C[C@@](C)(O)[C@]23OC(C)(C)[C@H](C[C@H](OC(=O)c4ccco4)[C@]2(C)[C@H]1OC(C)=O)[C@H]3OC(=O)C(F)(F)F
OUT: Not fulfilled

IN: Could you do the same for CC(=O)OC[C@]12[C@H](OC(C)=O)[C@H](OC(C)=O)[C@@H]3[C@@H](OC(C)=O)[C@]1(O[C@@]3(C)COC(C)=O)[C@](C)(O)[C@@H](OC(C)=O)[C@H](OC(C)=O)[C@@H]2OC(C)=O , please?
OUT: Not fulfilled

IN: Then CC(=O)O[C@H]1C[C@@](C)(O)[C@]23OC(C)(C)[C@H](C[C@H](OC(=O)c4ccco4)[C@]2(C)[C@H]1OC(C)=O)[C@H]3OC(=O)c1ccco1 ?
OUT: Fulfilled

====

biological target: P-gp (ABCB1) (Homo sapiens); experiment: Inhibition of human Pgp-mediated DNR transport in NIH3T3 cells by microplate assay; format: cell-based, Mus musculus; conditions: mouse, NIH3T3 cells expressing human P-gp, probe DNR; read-out: Imax
Quick reference for Emax among some compounds
Enter your answer as a number in %; do not include the unit.

Examples with answers:
INSERT INTO results (compound_structure, result_number) VALUES
  ('CC(=O)O[C@@H]1[C@H]2C[C@H](OC(=O)c3ccco3)[C@]3(C)[C@@H](OC(C)=O)[C@@H](OC(=O)c4ccco4)C[C@@](C)(O)[C@@]13OC2(C)C', 61.7),
  ('CC(=O)OC[C@]12[C@H](OC(=O)c3ccccc3)C(=O)[C@@H]3[C@@H](OC(C)=O)[C@]1(OC3(C)C)[C@H](C)C[C@H](OC(C)=O)[C@@H]2O', 91.7),
  ('CC(=O)O[C@H]1[C@@H](OC(=O)c2ccccc2)C[C@@](C)(O)[C@]23OC(C)(C)[C@H](C[C@H](OC(=O)c4ccco4)[C@]12C)[C@H]3OC(=O)c1ccco1', 93.1),
  ('CC(=O)OC[C@]12[C@H](OC(=O)c3ccccc3)C(=O)[C@@H]3[C@@H](OC(C)=O)[C@]1(OC3(C)C)[C@](C)(O)C[C@H](OC(=O)c1ccccc1)[C@@H]2OC(=O)c1ccccc1', 80),
  ('CC(=O)OC[C@]12[C@@H](OC(=O)c3ccccc3)C[C@@H]3[C@@H](OC(=O)c4ccccc4)[C@]1(OC3(C)C)[C@](C)(O)C[C@H](OC(C)=O)[C@@H]2OC(C)=O', 100);

IN: Which Emax value belongs to CC(=O)OC[C@]12[C@@H](OC(=O)c3ccccc3)C[C@@H]3[C@@H](OC(C)=O)[C@]1(OC3(C)C)[C@H](C)C[C@H](OC(=O)c1ccccc1)[C@@H]2OC(C)=O ?
OUT: 88

IN: Now the compound CC(=O)O[C@H]1C[C@@](C)(O)[C@]23OC(C)(C)[C@H](C[C@H](OC(=O)c4ccco4)[C@]2(C)[C@H]1OC(C)=O)[C@H]3OC(=O)c1ccccc1
OUT: 67.9

IN: Input CC(=O)O[C@H]1C[C@@](C)(O)[C@]23OC(C)(C)[C@H](C[C@H](OC(=O)c4ccco4)[C@]2(C)[C@H]1OC(C)=O)[C@H]3OC(=O)c1ccco1
OUT: 95.7

====

Reported Emax values for a set of compounds
target: P-gp (ABCB1) (Homo sapiens, UniProt P08183); assay: Inhibition of human Pgp-mediated DNR transport in NIH3T3 cells by microplate assay; format: cell-based, Mus musculus; conditions: mouse, NIH3T3 cells expressing human P-gp, probe DNR; read-out: Imax
Give the number; % is assumed, so skip it.

# count of solved cases: 3
INSERT INTO results (compound_structure, experimental_readout, result_number) VALUES
  ('CC(=O)O[C@@H]1[C@H](O)[C@@H](C)[C@@]23C[C@@H](C[C@H](OC(=O)/C=C/c4ccccc4)[C@]2(C)[C@H]1OC(=O)c1ccccc1)C(C)(C)O3', 'Emax', 82.9),
  ('CC(=O)O[C@H]1[C@@H]2[C@@H](OC(C)=O)[C@]3(OC2(C)C)[C@H](C)C[C@H](OC(=O)c2cccnc2)[C@H](OC(=O)c2ccccc2)[C@@]3(C)[C@H]1OC(=O)c1ccccc1', 'Emax', 92.3),
  ('CC(=O)O[C@H]1[C@@H]2C[C@@]3(OC2(C)C)[C@](C)([C@H]1OC(=O)c1ccccc1)[C@@H](OC(=O)c1cccnc1)[C@H](OC(C)=O)[C@H](OC(=O)c1ccccc1)[C@@]3(C)O', 'Emax', 100);

IN: Recorded Emax of CCCCCO[C@@H]1[C@@H]2[C@@H](OC(C)=O)[C@@]3(OC2(C)C)[C@@](COC(C)=O)([C@@H](OC(C)=O)CC[C@@]3(C)O)[C@@H]1OC(=O)c1ccccc1 , please.
OUT: 87.7

IN: Next: CC(=O)OC[C@]12[C@H](OC(C)=O)[C@H](OC(C)=O)[C@@H]3[C@@H](OC(C)=O)[C@]1(O[C@@]3(C)COC(C)=O)[C@](C)(O)[C@@H](OC(C)=O)[C@H](OC(C)=O)[C@@H]2OC(C)=O
OUT: 31

IN: Now the compound CC(=O)O[C@H]1C[C@@](C)(O)[C@]23OC(C)(C)[C@H](C[C@H](OC(=O)c4ccco4)[C@]2(C)[C@H]1OC(C)=O)[C@H]3O
OUT: 100

IN: Another compound to look at: CC(=O)OC[C@]12[C@H](OC(=O)c3ccccc3)C(=O)[C@@H]3[C@@H](OC(C)=O)[C@]1(OC3(C)C)[C@](C)(O)C[C@H](OC(C)=O)[C@@H]2OC(=O)c1ccccc1
OUT: 81.1

IN: Check CC(=O)O[C@H]1C[C@@](C)(O)[C@]23OC(C)(C)[C@H](C[C@H](OC(=O)c4ccco4)[C@]2(C)[C@H]1OC(C)=O)[C@H]3OC(=O)c1cccc2ccccc12 too.
OUT: 91.1

IN: Now give it for CC(=O)OC[C@]12[C@@H](OC(=O)c3ccccc3)C[C@@H]3[C@@H](OC(C)=O)[C@]1(OC3(C)C)[C@](C)(O)C[C@H](OC(C)=O)[C@@H]2OC(C)=O too.
OUT: 85

IN: Ok, now CC(=O)O[C@H]1C[C@@](C)(O)[C@]23OC(C)(C)[C@H]([C@H](OC(=O)c4ccccc4)[C@H](OC(=O)c4ccccc4)[C@]2(CO)[C@H]1OC(C)=O)[C@H]3OC(C)=O
OUT: 73

IN: For CC(=O)O[C@@H]1[C@H]2[C@H](O)[C@H](OC(=O)c3ccccc3)[C@]3(C)[C@@H](OC(=O)c4ccccc4)[C@@H](OC(=O)c4ccccc4)C[C@@](C)(O)[C@@]13OC2(C)C then?
OUT: 100

IN: Do the same for CC(=O)O[C@H]1C[C@@](C)(O)[C@]23OC(C)(C)[C@H](C[C@H](OC(=O)c4ccco4)[C@]2(C)[C@H]1OC(C)=O)[C@H]3OC(=O)C(C)(C)C please
OUT: 75.2

IN: Also CC(=O)OC[C@]12[C@@H](OC(=O)c3ccccc3)[C@@H](OC(=O)c3ccccc3)[C@@H]3[C@@H](OC(C)=O)[C@]1(OC3(C)C)[C@H](C)C[C@H](OC(C)=O)[C@@H]2OC(C)=O , if possible.
OUT: 86.2

IN: Now this one: CC(=O)OC[C@]12[C@@H](OC(=O)c3ccccc3)C[C@@H]3[C@@H](OC(=O)c4ccccc4)[C@]1(OC3(C)C)[C@H](C)C[C@H](OC(=O)c1cccnc1)[C@@H]2OC(C)=O
OUT: 85.8

IN: Next entry: CC(=O)O[C@H]1[C@@H](O)C[C@@](C)(O)[C@]23OC(C)(C)[C@H](C[C@H](OC(=O)c4ccco4)[C@]12C)[C@H]3OC(=O)c1ccco1
OUT: 51.8

IN: Follow-up entry: CC(=O)OC[C@]12[C@@H](OC(=O)c3ccccc3)[C@@H](OC(=O)c3ccccc3)[C@@H]3[C@@H](OC(C)=O)[C@]1(OC3(C)C)[C@](C)(O)C[C@H](OC(C)=O)[C@@H]2OC(C)=O
OUT: 97

IN: What do we get for CC(=O)O[C@H]1[C@H](OC(=O)c2cccnc2)[C@@]2(C)[C@@H](OC(=O)c3ccccc3)[C@@H](OC(=O)c3ccccc3)[C@@H]3C[C@]2(OC3(C)C)[C@](C)(O)[C@H]1OC(C)=O ?
OUT: 100

IN: Follow-up item: CC(=O)O[C@H]1C[C@@](C)(O)[C@]23OC(C)(C)[C@H](C[C@H](OC(=O)c4ccco4)[C@]2(C)[C@H]1O)[C@H]3OC(=O)c1ccco1
OUT: 100
